We begin with a simple list: items and their reported inhibition at 10 µM.
Target: glucosylceramide synthase (Homo sapiens)
Construct: made in house; host or cells: Expi293F cells (transient expression, pcDNA3.3-TOPO vector); microsome fraction used as enzyme source
Sequence (Q16739 1-394): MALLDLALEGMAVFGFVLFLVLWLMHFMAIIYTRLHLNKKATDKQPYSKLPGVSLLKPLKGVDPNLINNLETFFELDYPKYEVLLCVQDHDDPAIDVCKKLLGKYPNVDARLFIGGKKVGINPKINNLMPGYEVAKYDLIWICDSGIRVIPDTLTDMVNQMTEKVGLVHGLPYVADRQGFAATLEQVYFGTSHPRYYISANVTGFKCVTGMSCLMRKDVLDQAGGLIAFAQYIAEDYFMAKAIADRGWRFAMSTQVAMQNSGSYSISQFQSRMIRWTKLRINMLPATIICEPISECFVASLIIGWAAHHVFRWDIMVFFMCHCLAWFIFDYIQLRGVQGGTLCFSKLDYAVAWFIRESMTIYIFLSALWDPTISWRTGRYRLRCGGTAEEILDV
Experiment: Glucosylceramide synthase (GCS) enzyme assay, microsome fraction, C8 glucosylceramide quantified by Rapidfire MS/MS
Assay type: biochemical
Conditions: test compound 10 μM; 1.7 μM UDP-glucose, 3 μM C8 ceramide; room temperature 60 min; read-out: GCS enzyme inhibitory rate at 10 μM (%) (% of control)
State just the number; it will be interpreted in %.

Below: 4 molecules and their reported inhibition at 10 µM.
molecule | inhibition at 10 µM [%]
O=C1c2ccnc(-c3ccccc3OCC(F)(F)F)c2CN1c1ccc(C(O)C2CC2)nc1 (racemic) [Example 317] | 99
Cc1cc2c(c(-c3ccccc3OCC(F)(F)F)n1)CN(c1ccc(OCC3(O)CC3)cc1)C2=O [Example 375] | 100
O=C1C2=C(CN1c1ccc(OCC(F)(F)F)cc1)C(c1ccc(F)cc1OCC(F)(F)F)=NCCO2 [Example 209] | 98
O=C1c2ccnc(-c3ccc(F)cc3OCC(F)(F)F)c2CN1c1ccc(OCC2(F)COC2)cc1 [Example 194] | 98

Determine its reported inhibition at 10 µM: O=C1c2cc(C3CCOCC3)nc(-c3ccc(F)cc3OCC(F)(F)F)c2CN1c1ccc(F)cc1 [Example 382]
97

Determine its reported inhibition at 10 µM: COc1ccccc1-c1nccc2c1CN(c1ccc(OC(F)F)cc1)C2=O [Example 25]
99

Determine its reported inhibition at 10 µM: O=C1c2ccnc(-c3ccc(F)cc3OCC3(F)CC3)c2CN1c1ccc(OC(F)F)cc1 [Example 128]
99

Determine its reported inhibition at 10 µM: O=C1c2ccnc(-c3ccccc3OCC(F)(F)F)c2CN1c1ccc(C2(O)CC2)cc1 [Example 222]
100
